test system: HeLa; test: Antiproliferative activity against human HeLa cells after 72 hrs by MTT reduction assay; format: functional, cell-based
MEASURE: IC50 (µM)
The figure you give is taken to be in µM; do not add the unit.

So what's the measured IC50 for this one? C/C=C1/[C@H](O[C@@H]2O[C@H](CO)[C@@H](O)[C@H](O)[C@H]2O)OC=C(C(=O)OC)[C@H]1CC(=O)OCCC1CCCCC1 (stereo in doubt)
5.6

Which measured IC50 value corresponds to C/C=C1/[C@H](O[C@@H]2O[C@H](CO)[C@@H](O)[C@H](O)[C@H]2O)OC=C(C(=O)OC)[C@H]1CC(=O)OCCc1ccccc1 (stereo in doubt) ?
18.5

Which measured IC50 value corresponds to C/C=C1/[C@H](O[C@@H]2O[C@H](COC(C)=O)[C@@H](OC(C)=O)[C@H](OC(C)=O)[C@H]2OC(C)=O)OC=C(C(=O)OC)[C@H]1CC(=O)OCCc1ccccc1 (stereo in doubt) ?
21

Any idea what its IC50 is? The compound is C/C=C1/[C@H](O[C@@H]2O[C@H](CO)[C@@H](O)[C@H](O)[C@H]2O)OC=C(C(=O)OC)[C@H]1CC(=O)OCCC(C)C (stereo in doubt)
19.5

Item C/C=C1/[C@H](O[C@@H]2O[C@H](COC(C)=O)[C@@H](OC(C)=O)[C@H](OC(C)=O)[C@H]2OC(C)=O)OC=C(C(=O)OC)[C@H]1CC(=O)OCCCCCCCCCCCCCCCC has what recorded IC50?
17

Give the measured IC50 of C/C=C1/[C@H](O[C@@H]2O[C@H](COC(C)=O)[C@@H](OC(C)=O)[C@H](OC(C)=O)[C@H]2OC(C)=O)OC=C(C(=O)OC)[C@H]1CC(=O)OCCC (stereo in doubt) .
17.5

Sample COc1cccc2c1C(=O)c1c(O)c3c(c(O)c1C2=O)C[C@@](O)(C(=O)CO)C[C@@H]3O[C@H]1C[C@H](N)[C@H](O)[C@H](C)O1 — what was its IC50?
0.221
